- targetUnderTest: Btk (Homo sapiens, UniProt Q06187)
- Construct: purified from insect cells as a full-length construct containing a N-terminal 6X-His tag; His6 (N); made in house; host or cells: insect cells (Method C)
- Sequence (Q06187 whole entry): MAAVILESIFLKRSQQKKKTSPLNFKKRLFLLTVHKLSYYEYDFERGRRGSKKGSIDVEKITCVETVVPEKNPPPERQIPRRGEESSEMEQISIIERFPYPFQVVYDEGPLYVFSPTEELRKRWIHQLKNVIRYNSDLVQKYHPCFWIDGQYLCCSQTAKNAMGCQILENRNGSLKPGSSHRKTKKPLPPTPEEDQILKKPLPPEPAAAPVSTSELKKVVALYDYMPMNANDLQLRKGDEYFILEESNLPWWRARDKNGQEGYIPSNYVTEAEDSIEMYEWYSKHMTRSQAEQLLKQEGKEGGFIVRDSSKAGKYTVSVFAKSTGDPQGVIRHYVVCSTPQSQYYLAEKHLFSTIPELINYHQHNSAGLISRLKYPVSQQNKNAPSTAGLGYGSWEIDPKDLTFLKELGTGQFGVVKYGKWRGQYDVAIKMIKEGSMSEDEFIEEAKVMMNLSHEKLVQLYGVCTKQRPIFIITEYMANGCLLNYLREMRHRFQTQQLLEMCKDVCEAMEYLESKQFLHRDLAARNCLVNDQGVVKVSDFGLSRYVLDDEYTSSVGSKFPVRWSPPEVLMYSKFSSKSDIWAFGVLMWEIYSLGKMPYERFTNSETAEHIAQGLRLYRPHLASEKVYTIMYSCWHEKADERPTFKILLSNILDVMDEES
- protocolDescription: Btk in vitro inhibitory activity (one of Method A TR-FRET, Method B electrophoretic mobility shift, Method C radiometric filter binding)
- Type: biochemical
- reportedConditions: wild-type Btk; read-out: Btk-WT IC50
outcomeMeasure: IC50 (nM)

* C[C@@H]1[C@H](Nc2n[nH]c3nccc(-c4ccc(CNC(=O)c5noc(C(C)(C)C)n5)c(F)c4)c23)CCCN1C(=O)N1CCCC1 | 129
* CC(=O)N1CC[C@H](Nc2n[nH]c3nccc(-c4ccc(CNC(=O)c5noc(C(C)(C)C)n5)c(F)c4)c23)C1 | 13.7
* C=CC(=O)N1CC[C@@H](Nc2n[nH]c3nccc(-c4ccc(NC(=O)Nc5noc(C(C)(C)C)n5)c(F)c4)c23)C1 | 639

Entry source: patent US20180194762A1
